The measured values listed here are drawn from the supplement of paper PMC13380429.

Task for the reader: assign each of the following molecules its reported drug sensitivity score.
- System: HepG2
- assay_info: drug sensitivity score (DSS) for viability; higher = more toxic; extreme values may be limits of the assay
- test_settings: 72 h
Numbers only.

Below, 3 molecules whose answers are already recorded.
| molecule | readout_name | reported_measurement |
| --- | --- | --- |
| CC1(C)CCC(C)(C)c2cc(C3(c4ccc(C(=O)O)cc4)OCCO3)ccc21 [BMS-649] | drug sensitivity score | 0 |
| Clc1ccc(CO/N=C(\Cn2ccnc2)c2ccc(Cl)cc2Cl)c(Cl)c1 [oxiconazole] | drug sensitivity score | 0 |
| [O-][S+](c1ccccc1)c1ccc2nnnn2n1 (centres undefined) [Ro-106-9920] | drug sensitivity score | 5.8 |

Count: 6. Required value per item: drug sensitivity score.
1. Cc1noc(NS(=O)(=O)c2ccc(N)cc2)c1C [sulfafurazole]
2. CN1CC[C@@H](c2c(O)cc(O)c3c(=O)cc(-c4ccccc4Cl)oc23)[C@@H]1CO [P276-00]
3. N#Cc1cc2c(OCC(O)CN3CCN(C(c4ccccc4)c4ccccc4)CC3)cccc2[nH]1 (centres undefined)
4. O=C(NC[C@H](O)CO)c1ccncc1Nc1ccc(I)cc1F
5. CN(CCOc1ccc(NS(C)(=O)=O)cc1)CCc1ccc(NS(C)(=O)=O)cc1 [dofetilide]
6. O=C(O)c1cccnc1Nc1cccc(C(F)(F)F)c1 [niflumic-acid]

1: 0; 2: 16.7; 3: 3.2; 4: 27.2; 5: 0; 6: 0
